- assay explanation: Plasma and brain concentrations by LC-MS/MS after IP administration to mice
- Type: in vivo, mouse
- condition label: mouse, in vivo, ip, 1 mg/kg
metric: half-life

Measured half-life of `C=CCc1c(N(C)c2ccc(C(=O)O)cc2)nc(-c2ccccc2)nc1C(F)(F)F` : ~120 min

----------
- assay explanation: Plasma and brain concentrations by LC-MS/MS after IP administration to mice
- Format: in vivo, mouse
- condition label: mouse, brain homogenate / blood plasma; mice, 1 and 2 hours after IP XCT (printed 1 μg/kg), LC-MS/MS
metric: Kp

Measured Kp of C=CCc1c(C)nc(-c2ccccc2)nc1Nc1ccc(C(=O)O)cc1 [XCT0135908, reference compound] : < 0.03
